Task for the reader: assign each of the following compounds its reported CC50 at 120 h.
experiment: Cytotoxicity against mouse ScN2a-cl3 cells after 5 days by calcein-AM assay; type: cell-based, N2a-cl3; details: read-out: LD50

Worked set:
test_smiles | CC50 at 120 h
CC(C)N1CCN(c2ccc(NC(=O)c3ccc(-c4ccccn4)cc3)cc2F)CC1 | > 10 µM
CC(C)N1CCN(c2ccc(NC(=O)c3ccc(-c4ccccn4)cc3)cc2)CC1 | > 10 µM

// batch mode: one CC50 at 120 h value per listed entry
1. CCN1CCN(c2ccc(NC(=O)c3ccc(-c4ccccn4)cc3)cc2)CC1
2. CN1CCN(c2ccc(NC(=O)c3ccc(-c4ccccc4)cc3)cc2)CC1
3. CC(C)N1CCN(c2ccc(NC(=O)c3ccc(-c4ccccn4)cc3)c(F)c2)CC1
4. CCN1CCN(c2ccc(NC(=O)c3ccc(-c4cccnc4)cc3)cc2)CC1
5. CC(C)N1CCN(c2ccc(NC(=O)c3ccc(-c4ccccc4)cc3)cc2)CC1

1: > 10 µM; 2: > 5 µM; 3: > 10 µM; 4: > 10 µM; 5: > 10 µM

* * *

Task for the reader: assign each of the following compounds its reported Cmax.
system: Brain; test: Cmax in CD-1 mouse brain at 10 mg/kg, po after 6 hrs by LC/MS analysis; assay type: ADME, organism-based; parameters: dose 10 mg/kg, route oral; conditions: in vivo
One number for each entry, in µM.

test_smiles | unit_name | reported_result
CC(C)N1CCN(c2ccc(NC(=O)c3ccc(-c4ccccn4)cc3)nc2)CC1 | µM | 6
CC(C)N1CCN(c2ccc(NC(=O)c3ccc(-c4ccccn4)cc3)cc2F)CC1 | µM | 6.75
CCN1CCN(c2ccc(NC(=O)c3ccc(-c4cccnc4)cc3)cc2)CC1 | µM | 1.44

// batch mode: one Cmax value per listed entry
1. CCN1CCN(c2ccc(NC(=O)c3ccc(-c4ccccc4)cc3)cc2)CC1
2. CC(C)N1CCN(c2ccc(NC(=O)c3ccc(-c4ccccn4)cc3)c(F)c2)CC1
3. CC(C)N1CCN(c2ccc(NC(=O)c3ccc(-c4ccccc4)cc3)cc2)CC1

[7.95, 17.3, 2.52]

// batch mode: one Cmax value per listed entry
1. CCN1CCN(c2ccc(NC(=O)c3ccc(-c4ccccn4)cc3)cc2)CC1
2. CC(C)N1CCN(c2ccc(NC(=O)c3ccc(-c4ccccn4)cc3)cc2)CC1

6.23
0.09

* * *

Task for the reader: assign each of the following molecules its reported AUC(0-t) at 6 h.
assay: AUC (0 to 6 hrs) in CD-1 mouse plasma at 10 mg/kg, po by LC/MS analysis; type: ADME, organism-based; design: time < 6 hr, dose 10 mg/kg, route oral
One number for each entry, in µM·h.

test_smiles | reported_result
CC(C)N1CCN(c2ccc(NC(=O)c3ccc(-c4ccccc4)cc3)cc2)CC1 | 0.97
CCN1CCN(c2ccc(NC(=O)c3ccc(-c4ccccn4)cc3)cc2)CC1 | 1.05
CC(C)N1CCN(c2ccc(NC(=O)c3ccc(-c4ccccn4)cc3)cc2F)CC1 | 2.28
CC(C)N1CCN(c2ccc(NC(=O)c3ccc(-c4ccccn4)cc3)cc2)CC1 | 1.2
CC(C)N1CCN(c2ccc(NC(=O)c3ccc(-c4ccccn4)cc3)c(F)c2)CC1 | 1.46

Turning now to a further molecule:
Value lookup for AUC(0-t) at 6 h; key = CCN1CCN(c2ccc(NC(=O)c3ccc(-c4cccnc4)cc3)cc2)CC1
0.25

* * *

assay: Cytotoxicity against mouse ScN2a-cl3 cells after 5 days by calcein-AM assay; format: cell-based, N2a-cl3; conditions: read-out: LD50
Task for the reader: assign each of the following compounds its reported CC50 at 120 h.

// batch mode: one CC50 at 120 h value per listed entry
1. CCN1CCN(c2ccc(NC(=O)c3ccc(-c4ccncc4)cc3)cc2)CC1
2. CC(C)N1CCN(c2ccc(NC(=O)c3ccc(-c4ccccn4)cc3)cn2)CC1
3. CC(C)N1CCN(c2ccc(NC(=O)c3ccc(-c4ccccn4)cc3)nc2)CC1

1: > 10 µM; 2: > 10 µM; 3: > 10 µM
